Please provide measured ETS1 binding intensity for the entries that follow.
# TGT: ETS1 (UniProt P14921)
# Sequence: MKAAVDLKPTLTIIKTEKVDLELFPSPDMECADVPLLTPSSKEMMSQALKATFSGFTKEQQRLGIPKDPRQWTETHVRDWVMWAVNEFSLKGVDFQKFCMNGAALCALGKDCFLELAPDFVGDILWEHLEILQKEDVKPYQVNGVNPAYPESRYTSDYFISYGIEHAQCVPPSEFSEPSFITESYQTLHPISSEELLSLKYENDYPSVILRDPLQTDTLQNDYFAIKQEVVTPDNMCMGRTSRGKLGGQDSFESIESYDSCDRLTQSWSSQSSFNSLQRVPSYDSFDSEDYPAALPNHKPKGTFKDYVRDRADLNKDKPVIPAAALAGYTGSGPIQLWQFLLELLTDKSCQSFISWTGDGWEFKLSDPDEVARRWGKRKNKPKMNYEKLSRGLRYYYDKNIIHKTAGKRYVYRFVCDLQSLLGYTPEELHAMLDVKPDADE
# PROCEDURE TEXT: ETS1 binding intensity (PBM fluorescence) in presence of RUNX1, normalised to ETS1-only experiment (arbitrary fluorescence units); higher = stronger binding
# EXPERIMENTAL PARAMETERS: ETS1 concentration 1 nM; RUNX1 concentration 25 nM
Form field (numeric): enter value without unit.

Identify measured ETS1 binding intensity associated with CTTCATCAACCCATCCTGTCTTGTGGTTAAGTCAAG 1700

Identify measured ETS1 binding intensity associated with GACTGCGCCGGACGCGCCAGCCCTGCGGGATGACGT 801

Identify measured ETS1 binding intensity associated with TCAGAACCAGGAAACTGAAGGCGGTTACTCCACATA 663

Identify measured ETS1 binding intensity associated with ACAGATCCAAGGAAGCATATCCCGCAAGCAACTGTT 589

Identify measured ETS1 binding intensity associated with GAGGAGGCTGAGGAGGAAGTGCGGTGGCTGTTCTGC 1470

Identify measured ETS1 binding intensity associated with GAAATGAAGGCCGGATGTCAGTAACCACAAACGAGC 47500

Identify measured ETS1 binding intensity associated with CGAAGGAGGAAGCTGCACAGGGTGTCTGTGGCTGGC 428

Identify measured ETS1 binding intensity associated with AGCACAAACCCAGGATGTGGTAAATGAAATGAAAAA 5210

Identify measured ETS1 binding intensity associated with GGCCGGAAAGGGTCTTGAGAGGAGGTGGTTGCCTTA 519

Identify measured ETS1 binding intensity associated with AACAAAGAGAGAGGAAGTGGGTTGGGCGGGGGGGGT 1990

Identify measured ETS1 binding intensity associated with TGTGGAGACAGGAAGCACTAACCTCAAACCTCTTTC 8830

Identify measured ETS1 binding intensity associated with GTGAGAGGAAGTGGGCGCTGGTTTAATGTGGTCAGC 5410

Identify measured ETS1 binding intensity associated with TATGTCTGACTTCCGCTCGTGGTTTCCATCTTAGCC 5230

Identify measured ETS1 binding intensity associated with AAAGAGAAAGGAAACAAAGTATAGCACCACAGTGAG 554

Identify measured ETS1 binding intensity associated with CCATTTCCTGATTCTAATGTTCATCAACCACTTTTG 397

Identify measured ETS1 binding intensity associated with CCGAGCCGGCCTCTTCCGCCGCAAGTCCCTCCCCAA 428

Identify measured ETS1 binding intensity associated with AGATGCAAACACAGGAAACTTGTGGTCTATGCTGCT 7450

Identify measured ETS1 binding intensity associated with GCGTTTCCCCCTTGGGGTTATAGCAACCACCTCCTC 358

Identify measured ETS1 binding intensity associated with CTACAAACGGCTTCCTCCTGCCTAACCACAACCTCA 1130

Identify measured ETS1 binding intensity associated with GGAGGAAGAGGAGGATGTGGTGAGCCGCTCCCCGCC 1870

Identify measured ETS1 binding intensity associated with TAACCCGGAGCGGAAGGATCCCGCAGCGTGTGCGTA 797

Identify measured ETS1 binding intensity associated with CTAAGTGCTCTTCCTGCCAACCTGTGGGCGCCTGGC 686

Identify measured ETS1 binding intensity associated with GGCTGGGGCGGTATCCTGTGGTCTTACTCTGGTGAC 437

Identify measured ETS1 binding intensity associated with CCCTACTCAGGAGGATGTGGTTGGAGAACCCGCTGA 2260

Identify measured ETS1 binding intensity associated with AGCACCCGGAAGTCGGAGCTGCGCACGCACCGCGGG 1910
